Here we gather IC50 data for High affinity nerve growth factor receptor (Homo sapiens, UniProt P04629) reported by several publications.
outcome_measure: IC50

> print(dat)
                           structure.smiles   measurement
1  COCCN1C[C@@H](NC(=O)Nc2c(C(N)=O)c(C)nn2-c2ccccc2)[C@H](c2cc(F)cc(F)c2)C1      < 100 nM
2  CC(C)COc1cc2nccc(Oc3ccc(NC(=O)c4cn(C)c(=O)n(-c5ccc(F)cc5)c4=O)cc3F)c2c2c1OCCO2  50 to 500 nM
3  NC(=O)c1ccc(-c2cc(OC3CCOCC3)c3c(N)n[nH]c3c2)cc1N1CCN(CCCO)CC1        706 nM
4  COCCN1C[C@@H](NC(=O)Nc2c(C)c(OCC(F)(F)F)nn2-c2ccccc2)[C@H](c2ccc(F)cc2)C1      < 100 nM
